target: Recombinant human farnesyl transferase (FTase) (Homo sapiens, UniProt P49356); experiment: FTase fluorescence assay (farnesylation of dansyl-GCVLS peptide); details: recombinant human FTase 2.5 nM, Dansyl-GCVLS 85 nM, FPP 30 nM, 30° C., 50 minutes
READOUT LABEL: IC50

1) [2H]C([2H])([2H])n1cncc1[C@]1(N)c2ccc(C#N)c(c2)COc2cccc(c2)-c2cc(C#N)nc3ccc1cc23 (racemic) [(R)-70]; 10 to 100 nM
2) Cn1cncc1[C@@]1(N)c2ccc(C#N)c(c2)COc2cccc(c2)-c2cc(C#N)nc3ccc1cc23 [(S)-58]; ≤ 10 nM
3) Cn1cncc1[C@]1(O)c2ccc(C#N)c(c2)CCc2cccc(c2)-c2cc(=O)n(C)c3ccc1cc23 (racemic) [(S)-6]; > 100 nM
4) Cn1cncc1C1(O)c2cccc(c2)CCc2cccc(c2)-c2cc(=O)n(C)c3ccc1cc23 (stereo not shown); 10 to 100 nM

----------
assay: Metabolic stability in mouse liver microsomes; type: in vitro ADME; settings: CD-1 mouse liver microsomes 0.5 mg protein/mL, test compound 1 μM, 37° C.; read-out: T1/2 in MLM
READOUT LABEL: half-life at 1 μM

1. Cn1cncc1[C@@]1(O)c2ccc(Cl)c(c2)OCCc2cccc(c2)-c2cc(=O)[nH]c3ccc1cc23 [(S)-25]; < 5 min
2. Cn1cncc1[C@@]1(N)c2ccc(Cl)c(c2)OCc2cccc(c2)-c2cc(=O)n(C)c3ccc1cc23 [(S)-15]; < 5 min
3. Cn1cncc1[C@@]1(N)c2ccc(C#N)c(c2)OCCc2cccc(c2)-c2cc(=O)n(C)c3ccc1cc23 [(S)-37]; < 5 min
4. Cn1cnnc1[C@@]1(N)c2ccc(C#N)c(c2)OCCc2cccc(c2)-c2cc(=O)n(C)c3ccc1cc23 [(S)-39]; > 15 min
5. [2H]C([2H])([2H])n1c(=O)cc2c3cc(ccc31)[C@@](N)(c1nncn1C)c1ccc(Cl)c(c1)OCCc1cccc-2c1 [(S)-34]; 5 to 15 min
6. [2H]C([2H])([2H])n1c(=O)cc2c3cc(ccc31)[C@@](N)(c1cncn1C)c1ccc(C#N)c(c1)COc1cccc-2c1 [(S)-56]; > 15 min
7. Cn1cncc1[C@@]1(N)c2ccc(C#N)c(c2)COc2cccc(c2)-c2cc(C#N)nc3ccc1cc23 [(S)-58]; > 15 min
8. [2H]C([2H])([2H])n1c(=O)cc2c3cc(ccc31)[C@@](O)(c1cncn1C)c1ccc(Cl)c(c1)OCCc1cccc-2c1 [(S)-28]; < 5 min
9. Cn1cncc1[C@@]1(O)c2ccc(Cl)c(c2)CCc2cccc(c2)-c2cc(=O)n(C)c3ccc1cc23 [(S)-3]; 5 to 15 min
10. Cn1cncc1[C@@]1(O)c2ccc(C#N)c(c2)CCc2cccc(c2)-c2cc(=O)n(C)c3ccc1cc23 [(R)-6]; 5 to 15 min
11. [2H]C([2H])([2H])n1c(=O)cc2c3cc(ccc31)[C@@](N)(c1cncn1C)c1ccc(Cl)c(c1)COc1cccc-2c1 [(S)-47]; 5 to 15 min
12. [2H]C([2H])([2H])n1c(=O)cc2c3cc(ccc31)[C@@](N)(c1cncn1C)c1ccc(C#N)c(c1)CCc1cccc-2c1 [(R)-8]; 5 to 15 min
13. [2H]C([2H])([2H])n1c(=O)cc2c3cc(ccc31)[C@@](N)(c1cncn1C)c1ccc(C#N)c(c1)OCc1cccc-2c1 [(S)-20]; > 15 min
14. Cn1cnnc1[C@@]1(N)c2ccc(Cl)c(c2)OCCc2cccc(c2)-c2cc(=O)n(C3CC3)c3ccc1cc23 [(S)-35]; < 5 min
15. Cn1cncc1C1(O)c2ccc(Cl)c(c2)COc2cccc(c2)-c2cc(=O)n(C)c3ccc1cc23 (stereo not drawn) [Compound 45]; > 15 min
